Test: In vivo kinetics experiment (radioactivity distribution)
Set-up: species or system Wistar male rat
Details: 30 min after administration; rat i.v.; mean ± SD
Measure Name: Radioactivity distribution Stomach (% ID/g)
Numeric answer only, unit % ID/g assumed.

Entry FCCn1c(-c2cncc(Cn3cncc3[123I])c2)nc2cc(F)c(Cl)cc21 [[^123I] 610] , Radioactivity distribution Stomach reported as 1.27

Radioactivity distribution Stomach in this record for Fc1cc2nc(-c3cncc(Cn4ccnc4)c3)n(Cc3ccc([123I])cc3)c2cc1Cl [[^123I] 605] : 1.38

// Cn1c(-c2cncc(Cn3ccnc3)c2)nc2ccc([123I])cc21 [[^123I] 607] : Radioactivity distribution Stomach value = 1.17

# Radioactivity distribution Stomach (compound: COC(=O)c1cncn1[C@H](C)c1ccc(I)cc1 [[^123I] IMTO, (R)-[^123I]iodometomidate, reference compound] ) is 0.46

response.value for CC(C)n1c(-c2cncc(Cn3ccnc3)c2)nc2ccc([123I])cc21 [[^123I] 606] (field: Radioactivity distribution Stomach) = 1.66

Form field Radioactivity distribution Stomach, entry CCn1c(-c2cncc(Cn3ccnc3)c2)nc2ccc([123I])cc21 [[^123I] 608] : 1.34

In plain terms, FCCn1c(-c2cncc(Cn3ccnc3)c2)nc2ccc([123I])cc21 [[^123I] 604] has a documented Radioactivity distribution Stomach of 0.61

Value of Radioactivity distribution Stomach reported for the compound COc1cc([123I])cc2c1nc(-c1cncc(Cn3ccnc3)c1)n2C1CC1 [[^123I] 609] is 1.27

###

Assay: In vivo kinetics experiment (radioactivity distribution)
Set-up: species or system Wistar male rat
Conditions: rat, caudal vein, 60 min after administration
Experimental: Each of Compounds [^18F] 100, [^18F] 200, [^123I] 400, [^18F] 500, and [^123I] 601 to 610 obtained by the methods described in Examples 2, 4, 7, 9, 11, 13, 15, 17, 19, 21, 23, 25, 27, and 29, or [^123I] […] From the thus sacrificed rat, blood and organs (heart, lung, stomach, liver, spleen, small intestine, large intestine, kidney, bladder (including urine), muscle (lower limbs), brain, adrenal gland, testis, fat, femur, or thyroid gland) were excised, and the weights thereof were then measured. […]
Mark each entry Y if its Adrenal gland/muscle ratio of radioactivity accumulation sits below 100, and N for all others.

**Query** Does this compound meet the criterion Adrenal gland/muscle ratio of radioactivity accumulation < 100? [123I]c1ccc2nc(-c3cncc(Cn4ccnn4)c3)n(C3CC3)c2c1 [[^123I] 603]
**Result** N

**Query** Lab log: compare recorded Adrenal gland/muscle ratio of radioactivity accumulation with 100; is it strictly lower for FCCn1c(-c2cncc(Cn3ccnc3)c2)nc2cc(F)c([123I])cc21 [[^123I] 400] ?
**Result** Y

**Query** # TODO verify Adrenal gland/muscle ratio of radioactivity accumulation < 100 strictly for this compound: Fc1cc2nc(-c3cncc(Cn4ccnc4)c3)n(CCC[18F])c2cc1Cl [[^18F] 500]
**Result** N

**Query** Lab log: compare recorded Adrenal gland/muscle ratio of radioactivity accumulation with 100; is it strictly lower for Fc1cc2nc(-c3cncc(Cn4ccnc4)c3)n(CC[18F])c2cc1Cl [[^18F] 100] ?
**Result** N

**Query** Could you please tell me whether Adrenal gland/muscle ratio of radioactivity accumulation recorded for Fc1cc2nc(-c3cncc(Cn4ccnc4)c3)n(CC[18F])c2cc1Br [[^18F] 200] is less than 100?
**Result** N

**Query** Decide: Adrenal gland/muscle ratio of radioactivity accumulation of [123I]c1ccc2nc(-c3cncc(Cn4ccnc4)c3)n(C3CC3)c2c1 [[^123I] 602] strictly below 100?
**Result** Y

###

Assay: In vivo kinetics experiment (radioactivity distribution)
Parameters: species or system Wistar male rat
Conditions: 60 min after administration; rat i.v.; mean ± SD
Please respond with reported Radioactivity distribution Stomach for every item in the list.
All answers are understood in % ID/g, so give the number only.

Radioactivity distribution Stomach measured on COc1cc([123I])cc2c1nc(-c1cncc(Cn3ccnc3)c1)n2C1CC1 [[^123I] 609] = 1.47

Entry FCCn1c(-c2cncc(Cn3cncc3[123I])c2)nc2cc(F)c(Cl)cc21 [[^123I] 610] , Radioactivity distribution Stomach reported as 2.97

The reported value for FCCn1c(-c2cncc(Cn3ccnc3)c2)nc2ccc([123I])cc21 [[^123I] 604] in terms of Radioactivity distribution Stomach is 0.89

get_value(item= Fc1cc2nc(-c3cncc(Cn4ccnc4)c3)n(Cc3ccc([123I])cc3)c2cc1Cl [[^123I] 605] , readout=Radioactivity distribution Stomach) returns 2.22

So, CCn1c(-c2cncc(Cn3ccnc3)c2)nc2ccc([123I])cc21 [[^123I] 608] ? Its Radioactivity distribution Stomach was 1.15

Record summary for Cn1c(-c2cncc(Cn3ccnc3)c2)nc2ccc([123I])cc21 [[^123I] 607] : reported Radioactivity distribution Stomach = 1.52

Sure, the documented Radioactivity distribution Stomach for COC(=O)c1cncn1[C@H](C)c1ccc(I)cc1 [[^123I] IMTO, (R)-[^123I]iodometomidate, reference compound] is 0.41

Lookup result for CC(C)n1c(-c2cncc(Cn3ccnc3)c2)nc2ccc([123I])cc21 [[^123I] 606] ; measured Radioactivity distribution Stomach: 1.90

###

Target: UniProtKB P15538
Sequence (P15538 25-503): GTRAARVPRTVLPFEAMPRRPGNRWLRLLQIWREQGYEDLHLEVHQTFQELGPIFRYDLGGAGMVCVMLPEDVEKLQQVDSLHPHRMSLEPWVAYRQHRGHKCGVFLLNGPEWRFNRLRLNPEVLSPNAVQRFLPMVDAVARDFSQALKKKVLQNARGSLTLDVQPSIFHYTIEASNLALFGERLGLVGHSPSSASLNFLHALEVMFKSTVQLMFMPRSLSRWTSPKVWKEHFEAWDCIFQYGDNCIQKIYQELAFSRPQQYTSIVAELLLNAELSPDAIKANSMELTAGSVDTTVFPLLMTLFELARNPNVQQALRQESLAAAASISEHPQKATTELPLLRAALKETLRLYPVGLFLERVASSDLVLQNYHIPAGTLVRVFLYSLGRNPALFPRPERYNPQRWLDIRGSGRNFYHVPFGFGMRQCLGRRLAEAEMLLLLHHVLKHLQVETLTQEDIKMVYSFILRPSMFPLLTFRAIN
Assay: Cortisol production inhibition in V79-B1 cells expressing human CYP11B1 (ELISA)
Conditions: 11-deoxycortisol 100 nmol/L, 1 hour, cortisol by ELISA, mean or mean ± SD
Define the label as yes when IC50 is strictly less than 300 nM and as no in all remaining cases.

**Query** Threshold test, IC50 < 300 nM: FCCn1c(-c2cncc(Cn3ccnc3)c2)nc2cc(F)c(I)cc21
**Result** no

**Query** Determine whether this compound shows IC50 lower than 300 nM (ties excluded): FCCn1c(-c2cncc(Cn3ccnc3)c2)nc2ccc(I)cc21
**Result** yes

**Query** Report whether reported IC50 is lower than 300 nM (strictly) for CCn1c(-c2cncc(Cn3ccnc3)c2)nc2ccc(I)cc21
**Result** yes

**Query** Strictly below 300 nM: is that where IC50 of Cn1c(-c2cncc(Cn3ccnc3)c2)nc2ccc(I)cc21 sits?
**Result** yes

**Query** Please indicate whether the reported IC50 of Fc1cc2nc(-c3cncc(Cn4ccnc4)c3)n(Cc3ccc(I)cc3)c2cc1Cl is strictly below 300 nM.
**Result** no

**Query** Strictly below 300 nM: is that where IC50 of FCCn1c(-c2cncc(Cn3ccnc3)c2)nc2cc(F)c(Cl)cc21 sits?
**Result** yes

**Query** Regarding FCCn1c(-c2cncc(Cn3cncc3I)c2)nc2cc(F)c(Cl)cc21 , kindly confirm whether its IC50 is beneath 300 nM.
**Result** yes

**Query** # strict comparison: is reported IC50 < 300 nM? input = FCCCn1c(-c2cncc(Cn3ccnc3)c2)nc2cc(F)c(Cl)cc21
**Result** yes

###

Assay: In vivo kinetics experiment (radioactivity distribution)
Set-up: species or system Wistar male rat
Settings: 30 min after administration; rat i.v.; mean ± SD
Method: Each of Compounds [^18F] 100, [^18F] 200, [^123I] 400, [^18F] 500, and [^123I] 601 to 610 obtained by the methods described in Examples 2, 4, 7, 9, 11, 13, 15, 17, 19, 21, 23, 25, 27, and 29, or [^123I] […] From the thus sacrificed rat, blood and organs (heart, lung, stomach, liver, spleen, small intestine, large intestine, kidney, bladder (including urine), muscle (lower limbs), brain, adrenal gland, testis, fat, femur, or thyroid gland) were excised, and the weights thereof were then measured. […]
So I've got a bunch of compounds here, and I need their Adrenal gland/fat ratio of radioactivity accumulation values.

get_value(item= FCCn1c(-c2cncc(Cn3cncc3[123I])c2)nc2cc(F)c(Cl)cc21 [[^123I] 610] , readout=Adrenal gland/fat ratio of radioactivity accumulation) returns 88.69 ± 3.10

Record summary for FCCn1c(-c2cncc(Cn3ccnc3)c2)nc2ccc([123I])cc21 [[^123I] 604] : reported Adrenal gland/fat ratio of radioactivity accumulation = 156.19 ± 135.29

The compound listed as COc1cc([123I])cc2c1nc(-c1cncc(Cn3ccnc3)c1)n2C1CC1 [[^123I] 609] has a reported Adrenal gland/fat ratio of radioactivity accumulation of 110.76 ± 35.85

Documented Adrenal gland/fat ratio of radioactivity accumulation of CC(C)n1c(-c2cncc(Cn3ccnc3)c2)nc2ccc([123I])cc21 [[^123I] 606] : 172.63 ± 42.67

// field: Adrenal gland/fat ratio of radioactivity accumulation; key: Cn1c(-c2cncc(Cn3ccnc3)c2)nc2ccc([123I])cc21 [[^123I] 607] ; value = 109.60 ± 14.02

The reported value for CCn1c(-c2cncc(Cn3ccnc3)c2)nc2ccc([123I])cc21 [[^123I] 608] in terms of Adrenal gland/fat ratio of radioactivity accumulation is 103.83 ± 16.66

Reported Adrenal gland/fat ratio of radioactivity accumulation for Fc1cc2nc(-c3cncc(Cn4ccnc4)c3)n(Cc3ccc([123I])cc3)c2cc1Cl [[^123I] 605] was 22.69 ± 9.87
